Data origin: patent EP1132396A1

Reported Phagocytosis activity by item:
- Tested on: human peripheral blood leukocytes
- Experimental protocol: Measurement of phagocytosis activity (fluorescence-labeled latex beads, flow cytometry)
- Assay type: cell-based
- Measurement parameters: Concentration 3 µM; rate based on the control (only PBS)
Residues, ends and D or L forms follow the SMILES beside them.

# Compound, Experimental target, Phagocytosis activity
records = [
    ("CC[C@H](C)[C@H](NC(=O)[C@@H](NC(=O)[C@@H](N)CCSC)[C@@H](C)CC)C(=O)N[C@@H](CC(C)C)C(=O)O [MIIL] (H-MIIL-OH)", "human peripheral blood leukocytes", 1.62),
    ("CC[C@H](C)[C@H](NC(=O)[C@@H](N)CCSC)C(=O)N[C@@H](Cc1ccccc1)C(=O)N[C@@H](CC(C)C)C(=O)O [MIFL] (H-MIFL-OH)", "human peripheral blood leukocytes", 3.06),
    ("CC[C@H](C)[C@H](NC(=O)[C@@H](N)CCSC)C(=O)N[C@@H](CC(C)C)C(=O)N[C@@H](CC(C)C)C(=O)O [MILL] (H-MILL-OH)", "human peripheral blood leukocytes", 1.28),
    ("CC[C@H](C)[C@H](NC(=O)[C@@H](N)CCSC)C(=O)N[C@@H](Cc1ccc(O)cc1)C(=O)N[C@@H](CC(C)C)C(=O)O [MIYL] (H-MIYL-OH)", "human peripheral blood leukocytes", 2.21),
    ("CC[C@H](C)[C@H](NC(=O)[C@@H](N)CCSC)C(=O)N[C@@H](Cc1c[nH]c2ccccc12)C(=O)N[C@@H](CC(C)C)C(=O)O [MIWL] (H-MIWL-OH)", "human peripheral blood leukocytes", 3.04),
]
